tested on: isolated rabbit urinary bladder; assay: Relaxation effect on potassium-induced contraction of isolated rabbit urinary bladder; assay type: cell-based; conditions: Oryctolagus cuniculus; 50% relaxation concentration; high-K+ (30 mM) pre-contracted rabbit bladder strips; relaxation as percentage of the maximum produced by 0.1 mM papaverine; read-out: EC50 value range
EC50 overview

# count of solved cases: 3
Missing value: EC50, isolated rabbit urinary bladder, entry O=C([O-])Cc1nc(-c2ccc(F)cc2)oc1-c1ccc(Cl)s1.[Na+] [Preparation Example 152, acetic acid sodium salt] . Fill in?
1 to 3 µM

Which EC50 is reported with isolated rabbit urinary bladder for this entry: CSCc1nc(-c2ccc(C#N)cc2)[nH]c1-c1ccccc1 ?
0.5 to 1 µM

// map Cc1cc(-c2nc(-c3ccc(Cl)s3)c(CC(=O)O)s2)sc1C to recorded EC50 (system: isolated rabbit urinary bladder)
0.5 to 1 µM

Next:
Please state recorded EC50 (tested on isolated rabbit urinary bladder) of CN(C)c1ccc(-c2nc(CC(=O)O)c(-c3ccc(Cl)s3)o2)cc1
1 to 3 µM
